Values compiled from ChEMBL document CHEMBL3120092.

# Method Summary: Intrinsic cytotoxicity against human MT4 cells after 5 days by Cell Titre Glo assay
# Type: cell-based
Returns the class for an entry based on its CC50 at 120 h. Class ranges: zone 1 = under 0.6 µM, zone 2 = from 0.6 µM up to 10 µM, zone 3 = 10 µM and over

Molecule | Discrete Label
CC1=CC[C@H](C(=O)N(c2cc(C#CC(C)(C)C)sc2C(=O)O)[C@H]2CC[C@](O)(CO[C@H]3CCOC3)CC2)CC1 [RADALBUVIR] | zone 3
CC(C)(C)C#Cc1cc(N(C(=O)[C@H]2CC[C@H](C)CC2)[C@H]2CC[C@H](Oc3ccccn3)CC2)c(C(=O)O)s1 | zone 1
CC(C)(C)C#Cc1cc(N(C(=O)[C@H]2CC[C@H](C)CC2)[C@H]2CC[C@H](OC3CCOCC3)CC2)c(C(=O)O)s1 | zone 2
CC(C)(C)C#Cc1cc(N(C(=O)[C@H]2CC[C@H](C)CC2)[C@H]2CC[C@H](Oc3ccc4nccn4n3)CC2)c(C(=O)O)s1 | zone 1
CC(C)(C)C#Cc1cc(N(C(=O)[C@H]2CC[C@H](C)CC2)[C@H]2CC[C@@H](Oc3ccc(O)nn3)CC2)c(C(=O)O)s1 | zone 2
CC(C)(C)C#Cc1cc(N(C(=O)[C@H]2CC[C@H](C)CC2)[C@H]2CC[C@@](O)(CO[C@H]3CCOC3)CC2)c(C(=O)O)s1 | zone 3
CC(C)(C#Cc1cc(N(C(=O)[C@H]2CC[C@H](C)CC2)[C@H]2CC[C@H](OC3CCOC3)CC2)c(C(=O)O)s1)CCO (some centres undefined) | zone 3
C[C@@H]1CC[C@@H](C(=O)N(c2cc(C#CC(C)(C)C)sc2C(=O)O)[C@H]2CC[C@H](OC3CCOC3)CC2)[C@@H](O)C1 (some centres undefined) | zone 3
